protocol_details: Tmax in ICR mouse at 10 mg/kg, po measured upto 24 hrs by LC-MS analysis
Assay type: ADME, organism-based
test_settings: in vivo
recorded_endpoint: Tmax
# output: numeric value plus its unit

• CC(c1ccc(C(=O)Nc2ccccc2N)cc1)n1nc(-c2ccc(CN(C)C)cc2)ccc1=O (racemic) = 48 min

### Prompt Which Tmax value belongs to CN(C)Cc1ccc(-c2ccc(=O)n(Cc3ccc(C(=O)Nc4ccccc4N)cc3)n2)cc1 ?
### Response 24 min

----------
protocol_details: Clearance in Sprague-Dawley rat at 10 mg/kg, iv measured upto 24 hrs by LC-MS analysis
Format: ADME, organism-based
test_settings: in vivo
recorded_endpoint: clearance (mL/min/kg)
Note: unit mL/min/kg is implicit; provide only the numeric part.

### Prompt Given C[C@@H](c1ccc(C(=O)Nc2ccc(F)cc2N)cc1)n1nc(-c2ccc(CN(C)C)cc2)ccc1=O , state its recorded clearance.
### Response 34.3
